All values here come from ChEMBL document CHEMBL1201862.

Would you kindly list GI50 for each of these compounds?
- Test system: M14
- EXPERIMENTAL_PROTOCOL: NCI tumour cell line growth inhibition, 48 h
Active and inactive are the calls of the source. No stated cut-off is given here; in the data, active = GI50 up to about 1.1 µM and inactive = higher. *1 amine or outer side, *2 acyl side, *3 side chain or, on linkers, in order; H or OH if unused. Where a SMILES comes first, the peptide text is derived from it. [ ]: non-standard residue; d: D form. The star is where a group is joined. ξ: configuration not given here. NMeY = CN[C@@H](Cc1ccc(O)cc1)C(=O)O; Ethylenediamine = C(CN[*:2])N[*:1]; ξNMeL = CNC(CC(C)C)C(=O)O; Cbz = O=C(OCc1ccccc1)*; Lac = C[C@H](O)C(=O)O; ξA = CC(N)C(=O)O

Request the reported GI50 associated with CCOC(=O)NC(Nc1ncccn1)(C(=O)OCC)C(F)(F)F (configuration not stated)
> 100 µM (inactive)

Could you tell me which GI50 is on file for O=c1[nH]c2ccc(C(F)(F)F)cc2nc1C(F)(F)F ?
31.9 µM (inactive)

Which measured GI50 value corresponds to C=C(C(=O)OC1C(CO)OC(OCC2CC[C@@H]3C[C@]4(OC(=O)C3=C)C(C)=CC(=O)C24)C(O)C1O)[C@@H]1CCC(CO)C2C(=O)C=C(C)[C@@]2(O)C1 (some centres not stated) ?
2.08 µM (inactive)

If you can, please state the reported GI50 value of O=c1c2cccnc2cc(-c2ccccc2)n1CCO .
> 100 µM (inactive)

What value of GI50 has been recorded for this entry: COC(=O)CCC(C)[C@H]1CCC2C3C(C[C@H](OC(C)=O)[C@@]21C)[C@@]1(C)CCC2(C[C@H]1C[C@H]3OC(C)=O)OOC1(CCCCC1)OO2 (some centres not stated)
15.5 µM (inactive)

What measured GI50 goes with C=C(CCCCC)CN1CCCC1[C@@](C)(O)CC(=O)OCC (some centres not stated) ?
> 100 µM (inactive)

State the recorded GI50 for this entry: COc1ccc(C[C@@H](C(=O)NCCNC(=O)C(CC(C)C)N(C)C(=O)[C@@H]2CCCN2C(=O)[C@H](C)O)N(C)C(=O)[C@@H]2CCCN2C(=O)[C@H](CC(C)C)NC(=O)C(C)NC(=O)OCc2ccccc2)cc1 (some centres not stated) (Cbz-[ξA]LP[NMeY](Me)-{Ethylenediamine-ξNMeL-Pro-Lac})
> 100 µM (inactive)

---

Give measured GI50 for each item. Keep answers brief.
- Tested on: HOP-62
- EXPERIMENTAL_PROTOCOL: NCI tumour cell line growth inhibition, 48 h
Activity calls are given as the source filed them. Rule as the data show it: active = GI50 up to about 1.1 µM and inactive = higher.

Param readout = GI50; param system = HOP-62; param query = CC(=O)N(C)C(C(=O)N1CC(C)CC1C(=O)N(C)C1C(=O)NC(CC(C)C)C(=O)N2CC(C)CC2C(=O)NC(CC(C)C)C(=O)N(C)C(C(C)C)C(=O)N2CCCC2C(=O)N(C)C(CC(C)C)C(=O)NCC(=O)OC1C)C(C)C (centres undefined) ; response: value
> 100 µM (inactive)

# query: GI50 | item COc1ccc(CCCCl)c(C2=NCCc3ccccc32)c1 | system: HOP-62
33.4 µM (inactive)

Lab note: need GI50 with HOP-62 for entry O=P1(NCCCl)OCCC(OO)N1CCCl (centres undefined) , please look it up.
52.4 µM (inactive)

Could you share what GI50 was measured for Fc1ccc(N2C(=S)SC(=N\c3ccccc3)/C2=N/c2ccccc2)cc1 , tested on HOP-62?
> 75 µM (inactive)

Record lookup: for HOP-62, what GI50 belongs to OC[C@H]1O[C@@H](n2cnc3cncnc32)[C@H](O)[C@@H]1O ?
2.45 µM (inactive)

Reported GI50 for HOP-62, given CCOC(=O)NC(Nc1ccc(Cl)cn1)(C(F)(F)F)C(F)(F)F ?
> 100 µM (inactive)

State its GI50 on HOP-62: Cc1cc(CC(O)(C(F)(F)F)C(F)(F)F)cc(CC(O)(C(F)(F)F)C(F)(F)F)n1
3.33 µM (inactive)

Hi! What's the reported GI50 for Nc1ncc(CN2CCOCC2)c(-c2ccccc2O)n1 on HOP-62?
> 100 µM (inactive)

Notebook entry, HOP-62 assay: GI50 of O=c1[nH]c2ccc(C(F)(F)F)cc2nc1C(F)(F)F = ?
18.3 µM (inactive)

---

- System: OVCAR-4
- EXPERIMENTAL_PROTOCOL: NCI tumour cell line growth inhibition, 48 h
Active and inactive are the calls of the source. Rule as the data show it: active = GI50 up to about 1.1 µM and inactive = higher.
RECORDED_ENDPOINT: GI50

Suppose we examine the compound Cc1cc(C)nc(NS(=O)(=O)c2ccc(Nc3nncc(=O)n3N)cc2)n1 ; what GI50 value has been reported?
18.1 µM (inactive)

Which measured GI50 value corresponds to C[C@@H]1CC[C@]2(C)C3(C)CC[C@]2(OC3=O)[C@@]12CC(c1ccoc1)OC2=O (stereo partly specified) ?
20.7 µM (inactive)

GI50 for Cc1ccc(S(=O)(=O)NC(=O)Nc2nnc(S(N)(=O)=O)s2)cc1 ?
> 100 µM (inactive)

Query: GI50; subject: CCOC(=O)c1cn2c(n1)sc1cc(F)ccc12
> 100 µM (inactive)

Which measured GI50 value corresponds to O=C(O)C1CCCCN1c1ccccc1[N+](=O)[O-] (stereo unspecified) ?
> 100 µM (inactive)

Which GI50 is listed for N#Cc1c(-c2ccccc2)c(C=O)c(=O)n2c1[nH]c1ccccc12 ?
20.5 µM (inactive)

// lookup GI50 for CCOC(=O)N(Cc1cccs1)c1cc(OC)c(OC)c(OC)c1
32.1 µM (inactive)

Any idea what GI50 was measured for CC(C)(C)OC(=O)N1C(C2=COc3ccccc3O2)=COc2ccccc21 ?
36.8 µM (inactive)

For the compound shown here, COc1cc2c3c(c1OC)/C(=N/OS(=O)(=O)c1ccc(C)cc1)CC3N(S(=O)(=O)c1ccc(C)cc1)CC2 (stereo unspecified) , give the reported GI50.
> 100 µM (inactive)

May I ask what GI50 has been recorded for O=C1c2cc3c(cc2CC1Br)CCC3 (stereo unspecified) ?
1.85 µM (inactive)

So what's the measured GI50 for this one? O=C1C/C(=N/c2ccc(Cl)cc2)C(c2ccccc2)N1c1ccccc1 (stereo unspecified)
14.3 µM (inactive)

---

- Tested on: A498
- EXPERIMENTAL_PROTOCOL: NCI tumour cell line growth inhibition, 48 h
Calls of active or inactive are those of the source. No stated cut-off is given here; in the data, active = GI50 up to about 1.1 µM and inactive = higher.
Field 'call' accepts active, inactive

Called result for O=C1CCC2(c3ccc(Cl)cc3)Nc3cc(Cl)ccc3N12 (configuration not stated)
inactive

Identify the outcome logged in this assay for the compound shown: S=P1(c2ccccc2)Nc2ccc(Cl)cc2N1 (configuration not stated)
inactive

Call for entry O=C1c2cc3c(cc2CC1Br)CCC3 (configuration not stated) :
inactive

What call does the record list for CCOC(=O)N1CCc2cc(OC)c(OC)cc2/C1=C/c1ccc(OC)c(OC)c1 ?
inactive

What did the test return for CC(=O)OC1CCC2(C)C(CCC3C2CCC2(C)C(c4ccc(=O)oc4)C(OC(C)=O)CC32O)C1 (configuration not stated) ?
active

Dear all, I need the recorded test outcome for CC(=O)OCC1=C(C(=O)O)N2C(=O)C(NC(=O)CSc3ccncc3)C2SC1 (configuration not stated) , thank you.
inactive

# outcome recorded in this test, key = CSc1nc(C)cc(Nc2ccc(O)c(CN3CCCCC3)c2)n1
inactive

Answer briefly: the call reported for CCOC(=O)NC(Nc1ccc(Cl)cn1)(C(F)(F)F)C(F)(F)F in this assay.
inactive

Please indicate how the test categorized CCC(C)C1NC(=O)C2CCCN2C(=O)C(CC2CO2)OC(=O)CCNC(=O)C(C)N(C)C(=O)C(C(C)C)N(C)C1=O (configuration not stated) .
inactive

# outcome recorded in this test, key = COc1ccc(N2C(=O)C3c4[nH]c5ccc(Br)cc5c4C4CCC(C(C)(C)C)CC4C3C2=O)cc1 (configuration not stated)
inactive

For CC(=O)OC1C[C@@H](C)C2(C[C@H](O)c3ccoc3)C(=O)OC[C@]13C2CCC(O)C31CO1 (some centres not stated) , what call appears in the results of this test?
inactive

Lab log entry: Cc1[nH]c2ccccc2c1C1CC(=O)NC1=O (configuration not stated) — outcome as called in the assay?
inactive

Look up the recorded call for COc1ccc(-c2nc(-c3ccc(OC)cc3)n(-c3ccccc3)n2)cc1 in this test.
inactive

How was Cc1nc2c(s/c(=N\N)n2-c2ccccc2)c(=O)n1C classified in this test?
inactive

Any idea what this test logged for CCN(CC)c1nc(N(C)C)c2cc(OC)ccc2n1 ?
inactive

Kindly provide the recorded test outcome for the following compound: O=C(O)Cc1ccc(Nc2nc3cc(C(F)(F)F)ccc3nc2C(=O)O)cc1
inactive

// return assay outcome for O=C1/C(=C/c2ccc(Cl)cc2)CCC1CN1CCOCC1 (configuration not stated)
inactive

Short answer needed: outcome of this test for CC(=O)c1csc2c1C(=O)c1ccccc1C2=O ?
inactive

How did this test come out for Nc1ncc(CN2CCOCC2)c(-c2ccccc2O)n1 ?
inactive

How was Cc1nn(C(=O)CC(=O)Nc2ccc(Cl)cc2)c(C)c1/N=N/c1ccccc1C(=O)O classified in this test?
inactive

Any idea what this test logged for C[C@H]1C(=O)O[C@@H]1[C@H]1COC(C)(C)O1 ?
inactive

Which outcome was entered for the compound COC(=O)/C(=N\NC(C)(C)C)C(C(=O)OC)C(=O)C(=O)Nc1cc(Cl)ccc1Cl (configuration not stated) in this test?
inactive
